Biological target: TPM3-TRKA fusion protein (Homo sapiens)
Construct: The resulted chimeric proteins always retain the kinase domain of TRK proteins; TPM3 (fusion partner, N-terminal part of tropomyosin alpha-3, P06753); endogenous in cells; host or cells: KM12 colon cancer cells; the other entry of the earlier key: TPM3 (P06753, Tropomyosin alpha-3 chain)
Assay: TPM3-TRKA fusion protein levels in KM12 cells (Western blot)
Assay type: cell-based
Settings: 16 h; TPM3-TRKA degradation in KM12 cells at 10 nM compound, category of percentage degradation; read-out: Degradation (at 10 nM)
Entries and their percent degradation of TPM3-TRKA protein at 0.01 µM

Known percent degradation of TPM3-TRKA protein at 0.01 µM results, listed for orientation:
{"compound": "O=C(CN1CCN(c2ccc(C(=O)Nc3n[nH]c4ccc(Cc5cc(F)cc(F)c5)cc34)c(NC3CCOCC3)c2)CC1)NCCOCCOCCOCCOCCNc1ccc2c(c1)C(=O)N(C1CCC(=O)NC1=O)C2=O (centres unmarked)", "result": "> 80%"}
{"compound": "O=C1CCC(N2C(=O)c3ccc(NCCOCCOCCC(=O)N4CCN(c5cccc(-c6cnc7ccc(N8CCC[C@@H]8c8cccc(F)c8)nn67)n5)CC4)cc3C2=O)C(=O)N1 (some centres unmarked)", "result": "> 80%"}
{"compound": "O=C1CCC(N2C(=O)c3ccc(CN4CC(CN5CCN(c6ccc(C(=O)Nc7n[nH]c8ccc(Cc9cc(F)cc(F)c9)cc78)c(NCCF)c6)CC5)C4)cc3C2=O)C(=O)N1 (centres unmarked)", "result": "> 80%"}
{"compound": "O=C1CCC(N2C(=O)c3cccc(NCCCC(=O)N4CCN(c5cccc(-c6cnc7ccc(N8CCC[C@@H]8c8cccc(F)c8)nn67)n5)CC4)c3C2=O)C(=O)N1 (some centres unmarked)", "result": "> 80%"}

Proceed to the following item.
// query percent degradation of TPM3-TRKA protein at 0.01 µM value for entry Cc1nc2cccc(N3CC(CCN4CCN(c5ccc(C(=O)Nc6n[nH]c7ccc(Cc8cc(F)cc(F)c8)cc67)c(NC6CCOCC6)c5)CC4)C3)c2c(=O)n1C1CCC(=O)NC1=O (centres unmarked)
50 to 80%

----------
Entries and their percent degradation of TPM3-TRKA protein at 0.01 µM
Target: TPM3-TRKA fusion protein (Homo sapiens, UniProt P04629)
Construct: The resulted chimeric proteins always retain the kinase domain of TRK proteins; TPM3 (fusion partner, N-terminal part of tropomyosin alpha-3, P06753); endogenous in cells; host or cells: KM12 colon cancer cells; the other entry of the earlier key: TPM3 (P06753, Tropomyosin alpha-3 chain)
Sequence (P04629 with tags, fused parts or gaps): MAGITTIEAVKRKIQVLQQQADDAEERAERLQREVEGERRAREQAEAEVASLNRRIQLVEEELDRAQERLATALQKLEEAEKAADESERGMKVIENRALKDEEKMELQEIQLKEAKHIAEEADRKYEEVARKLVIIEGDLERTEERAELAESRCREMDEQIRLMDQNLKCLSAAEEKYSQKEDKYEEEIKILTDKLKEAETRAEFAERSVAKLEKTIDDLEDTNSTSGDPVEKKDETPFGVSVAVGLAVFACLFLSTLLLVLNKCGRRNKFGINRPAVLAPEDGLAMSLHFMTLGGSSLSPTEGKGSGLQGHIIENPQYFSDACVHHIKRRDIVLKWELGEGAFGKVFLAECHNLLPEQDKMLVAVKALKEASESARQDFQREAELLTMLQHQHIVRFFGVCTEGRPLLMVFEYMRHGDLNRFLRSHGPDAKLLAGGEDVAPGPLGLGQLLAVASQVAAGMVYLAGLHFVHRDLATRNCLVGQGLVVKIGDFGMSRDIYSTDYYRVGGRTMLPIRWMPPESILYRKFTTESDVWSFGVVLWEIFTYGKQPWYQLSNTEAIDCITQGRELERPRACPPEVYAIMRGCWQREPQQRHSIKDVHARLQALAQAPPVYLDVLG
Assay: TPM3-TRKA fusion protein levels in KM12 cells (Western blot)
Format: cell-based
Conditions: 16 h; TPM3-TRKA degradation in KM12 cells at 10 nM compound, category of percentage degradation; read-out: Degradation (at 10 nM)

Known percent degradation of TPM3-TRKA protein at 0.01 µM results, listed for orientation:
{"compound": "O=C1CCC(N2C(=O)c3ccc(N4CC(C(=O)N5CCN(c6cccc(-c7cnc8ccc(N9CCC[C@@H]9c9cccc(F)c9)nn78)n6)CC5)C4)cc3C2=O)C(=O)N1 (some centres unmarked)", "result": "> 80%"}
{"compound": "O=C1CCC(N2C(=O)c3ccc(NCCC(=O)N4CCN(c5ccc(C(=O)Nc6n[nH]c7ccc(Cc8cc(F)cc(F)c8)cc67)c(NC6CCOCC6)c5)CC4)cc3C2=O)C(=O)N1 (centres unmarked)", "result": "> 80%"}
{"compound": "O=C(CN1CCN(c2cccc(-c3cnc4ccc(N5CCC[C@@H]5c5cccc(F)c5)nn34)n2)CC1)NCCCCCNc1ccc2c(c1)C(=O)N(C1CCC(=O)NC1=O)C2=O (some centres unmarked)", "result": "> 80%"}
{"compound": "O=C1CCC(N2C(=O)c3ccc(NCCC(=O)N4CCN(c5cccc(-c6cnc7ccc(N8CCC[C@@H]8c8cccc(F)c8)nn67)n5)CC4)cc3C2=O)C(=O)N1 (some centres unmarked)", "result": "> 80%"}

Proceed to the following item.
Request: percent degradation of TPM3-TRKA protein at 0.01 µM, test system TPM3-TRKA fusion protein (Homo sapiens, UniProt P04629), entry O=C1CCC(N2C(=O)c3ccc(CCC(=O)N4CCN(c5cccc(-c6cnc7ccc(N8CCC[C@@H]8c8cccc(F)c8)nn67)n5)CC4)cc3C2=O)C(=O)N1 (some centres unmarked)
50 to 80%

----------
Target: TPM3-TRKA fusion protein (Homo sapiens)
Construct: The resulted chimeric proteins always retain the kinase domain of TRK proteins; TPM3 (fusion partner, N-terminal part of tropomyosin alpha-3, P06753); endogenous in cells; host or cells: KM12 colon cancer cells; the other entry of the earlier key: TPM3 (P06753, Tropomyosin alpha-3 chain)
Experiment: TPM3-TRKA fusion protein levels in KM12 cells (Western blot)
Type: cell-based
Conditions: 16 h; TPM3-TRKA degradation in KM12 cells at 10 nM compound, category of percentage degradation; read-out: Degradation (at 10 nM)
property-measured: percent degradation of TPM3-TRKA protein at 0.01 µM

Known percent degradation of TPM3-TRKA protein at 0.01 µM results, listed for orientation:
{"molecule": "Cc1ncsc1-c1ccc(CNC(=O)[C@@H]2C[C@@H](O)CN2C(=O)[C@@H](NC(=O)CCCCCCC(=O)N2CCN(c3ccc(C(=O)Nc4n[nH]c5ccc(Cc6cc(F)cc(F)c6)cc45)c(NC4CCOCC4)c3)CC2)C(C)(C)C)cc1", "result": "> 80%"}
{"molecule": "O=C1CCC(N2Cc3ccc(C#CC(=O)N4CCN(c5cccc(-c6cnc7ccc(N8CCC[C@@H]8c8cccc(F)c8)nn67)n5)CC4)cc3C2=O)C(=O)N1 (stereo partly drawn)", "result": "50 to 80%"}

Proceed to the following item.
// query percent degradation of TPM3-TRKA protein at 0.01 µM value for entry O=C1CC[C@H](N2C(=O)c3ccc(N4CC(CN5CCN(c6ccc(C(=O)Nc7n[nH]c8ccc(Cc9cc(F)cc(F)c9)cc78)c(NC7CCOCC7)c6)CC5)C4)cc3C2=O)C(=O)N1
> 80%

----------
Biological target: TPM3-TRKA fusion protein (Homo sapiens, UniProt P04629)
Construct: The resulted chimeric proteins always retain the kinase domain of TRK proteins; TPM3 (fusion partner, N-terminal part of tropomyosin alpha-3, P06753); endogenous in cells; host or cells: KM12 colon cancer cells; the other entry of the earlier key: TPM3 (P06753, Tropomyosin alpha-3 chain)
Experiment: TPM3-TRKA fusion protein levels in KM12 cells (Western blot)
Type: cell-based
Conditions: 16 h; TPM3-TRKA degradation in KM12 cells at 10 nM compound, category of percentage degradation; read-out: Degradation (at 10 nM)
Protocol: KM12 cells were treated with DMSO or indicated compounds at 100 nM for 16 hours. KM12 cells were treated with DMSO or indicated compounds at 0. 1 nM, 1 nM or 10 nM for 16 hours. […] Cultured cells were washed with cold PBS once and lysed in cold RIPA buffer supplemented with protease inhibitors and phosphatase inhibitors (Beyotime Biotechnology). […] Total protein concentrations in the lysates were determined by BCA assays (Beyotime Biotechnology). […]
property-measured: percent degradation of TPM3-TRKA protein at 0.01 µM

{"compound": "O=C1CCC(N2C(=O)c3ccc(NCCOCCOCCOCCOCCC(=O)N4CCN(c5cccc(-c6cnc7ccc(N8CCC[C@@H]8c8cccc(F)c8)nn67)n5)CC4)cc3C2=O)C(=O)N1 (stereo partly drawn) [TR-120]", "result": "> 80%"}
{"compound": "O=C(CN1CCN(c2ccc(C(=O)Nc3n[nH]c4ccc(Cc5cc(F)cc(F)c5)cc34)c(NC3CCOCC3)c2)CC1)NCCCCNc1cccc2c1C(=O)N(C1CCC(=O)NC1=O)C2=O (stereo not drawn) [TR-155]", "result": "> 80%"}

// query percent degradation of TPM3-TRKA protein at 0.01 µM value for entry O=C1CCC(N2Cc3ccc(N4CC(N5CCN(c6cccc(-c7cnc8ccc(N9CCC[C@@H]9c9cccc(F)c9)nn78)n6)CC5)C4)cc3C2=O)C(=O)N1 (stereo partly drawn) [TR-335]
50 to 80%

----------
Target: TPM3-TRKA fusion protein (Homo sapiens)
Construct: The resulted chimeric proteins always retain the kinase domain of TRK proteins; TPM3 (fusion partner, N-terminal part of tropomyosin alpha-3, P06753); endogenous in cells; host or cells: KM12 colon cancer cells; the other entry of the earlier key: TPM3 (P06753, Tropomyosin alpha-3 chain)
Assay: TPM3-TRKA fusion protein levels in KM12 cells (Western blot)
Assay type: cell-based
Details: 16 h; TPM3-TRKA degradation in KM12 cells at 10 nM; read-out: Degradation (at 10 nM)
property-measured: percent degradation of TPM3-TRKA protein at 0.01 µM

{"compound": "NC(=O)C1CCN(c2cc(CN3CCN(C(=O)CCCCCCNc4cccc5c4C(=O)N(C4CCC(=O)NC4=O)C5=O)CC3)ccc2NC(=O)c2coc(N3CCOCC3)n2)CC1 (centres unmarked) [CPD-483]", "result": "> 80%"}

// query percent degradation of TPM3-TRKA protein at 0.01 µM value for entry O=C1CCC(N2C(=O)c3ccc(NCCOCCOCCOCCOCCC(=O)N4CCC(Nc5cccc(C(=O)Nc6cnn7ccc(N8CCC[C@@H]8c8cc(F)ccc8F)nc67)n5)CC4)cc3C2=O)C(=O)N1 (some centres unmarked) [CPD-476]
> 80%

// query percent degradation of TPM3-TRKA protein at 0.01 µM value for entry O=C1CCC(N2C(=O)c3ccc(NCCOCCOCCOCCC(=O)N4CCC(Nc5cccc(C(=O)Nc6cnn7ccc(N8CCC[C@@H]8c8cc(F)ccc8F)nc67)n5)CC4)cc3C2=O)C(=O)N1 (some centres unmarked) [CPD-475]
> 80%

// query percent degradation of TPM3-TRKA protein at 0.01 µM value for entry O=C1CCC(N2C(=O)c3ccc(NCCCCCCCC(=O)N4CCC(Nc5cccc(C(=O)Nc6cnn7ccc(N8CCC[C@@H]8c8cc(F)ccc8F)nc67)n5)CC4)cc3C2=O)C(=O)N1 (some centres unmarked) [CPD-472]
> 80%
